method: Cytotoxicity, alamarBlue, 72 h
Assay type: cell-based
setup-conditions: human
Description: For cytotoxicity tests, several mammalian cell lines were used. […] Primary cell cultures were also used to evaluate cytotoxicity. […] The in vitro cytotoxicity of the selected nitrofurans was evaluated in HepG2, RAW 264.7 cells, splenocytes and BMDM. […] The cytotoxic effect of the compounds was measured after 72 h of incubation at 37 °C and 5 % CO2. […] Fluorescence was measured using a Varioskan Lux spectrophotometer (ThermoFisher Scientific, Waltham, MA, USA). […]
metric-name: CC50 at 72 h (µM)

> print(dat)
                                   compound   metric.name  units.of.measure  result
1  CC(=O)OC(OC(C)=O)c1ccc([N+](=O)[O-])o1 [5-nitro-2-furaldehide diacetate, 5-Nitro-2-furaldehyde diacetate]  CC50 at 72 h                µM    24.1
